Biological target: Recombinant human cathepsin A (Homo sapiens (Human), UniProt P10619)
Sequence (P10619 29-326): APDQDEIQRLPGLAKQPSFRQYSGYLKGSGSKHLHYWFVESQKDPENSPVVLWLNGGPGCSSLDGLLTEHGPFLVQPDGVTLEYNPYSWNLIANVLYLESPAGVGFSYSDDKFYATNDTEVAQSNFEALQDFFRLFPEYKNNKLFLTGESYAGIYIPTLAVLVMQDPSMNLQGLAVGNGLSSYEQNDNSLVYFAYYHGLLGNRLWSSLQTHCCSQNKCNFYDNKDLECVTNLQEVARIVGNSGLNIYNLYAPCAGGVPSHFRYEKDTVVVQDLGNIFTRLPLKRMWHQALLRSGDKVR
Sequence (P10619 327-480): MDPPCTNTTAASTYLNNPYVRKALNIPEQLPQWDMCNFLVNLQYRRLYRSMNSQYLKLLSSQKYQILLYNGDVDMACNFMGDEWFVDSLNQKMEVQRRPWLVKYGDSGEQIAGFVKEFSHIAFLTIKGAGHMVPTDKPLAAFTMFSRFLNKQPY
Assay: Cathepsin A inhibitory activity (cleavage of Bodipy FL-labeled bradykinin, microfluidic capillary electrophoresis)
Format: biochemical
Conditions: read-out: Activity (IC50, cathepsin A inhibitory activity)
attribute.measured: pIC50
Worth noting: pIC50 values are minus log10 of concentrations stated in mol/L.

smiles.entry: CNc1cncc(C(=O)N[C@@H](CC(=O)O)c2ccccc2C)n1
target: Recombinant human cathepsin A (Homo sapiens (Human), UniProt P10619)
pIC50: 5.14
--
smiles.entry: COc1ccc(C(=O)N[C@@H](CC(=O)O)c2ccccc2Cl)nc1-c1ccccc1C(=O)N(C)C
target: Recombinant human cathepsin A (Homo sapiens (Human), UniProt P10619)
pIC50: 5.60
--
smiles.entry: COc1ccc(C(=O)N[C@@H](CC(=O)O)c2ccc(C)cc2)nc1-c1ccc2ccn(C)c2c1
target: Recombinant human cathepsin A (Homo sapiens (Human), UniProt P10619)
pIC50: 5.05
--
smiles.entry: COc1cc(F)ccc1-c1cncc(C(=O)N[C@@H](CC(=O)O)c2ccccc2C)c1
target: Recombinant human cathepsin A (Homo sapiens (Human), UniProt P10619)
pIC50: 5.11
--
smiles.entry: COc1ccc(F)c(-c2cncc(C(=O)N[C@@H](CC(=O)O)c3ccccc3C)c2)c1
target: Recombinant human cathepsin A (Homo sapiens (Human), UniProt P10619)
pIC50: 5.07

Q: Recorded pIC50 for `COc1ccc(-c2cc(C(=O)N[C@@H](CC(=O)O)c3ccccc3C)cnc2OC)cc1` , please?
Result: 5.04

Q: Using the record for `COc1ncc(C(=O)N[C@@H](CC(=O)O)c2ccccc2C)cc1-c1ccc(F)cc1` , report its pIC50.
Result: 5.36

Q: // pIC50 lookup, key: `COc1ccc(C(=O)N[C@@H](CC(=O)O)c2ccccc2F)nc1-c1cc(C(F)(F)F)ccc1F`
Result: 5.40

Q: Which value of pIC50 has been reported for `COc1cc(Cl)ccc1-c1nc(C(=O)N[C@@H](CC(=O)O)c2ccc(C)cc2)ccc1OC` in the records?
Result: 5.63

Q: Fill blank: measured pIC50 of the compound `Cc1ccccc1[C@H](CC(=O)O)NC(=O)c1cncc(-c2ccccc2C(F)(F)F)c1` is ____.
Result: 5.37

Q: Can you look up the measured pIC50 of `COc1ccc(OC)c(-c2nc(C(=O)N[C@@H](CC(=O)O)c3ccccc3Cl)ccc2OC)c1` for me?
Result: 5.08

Q: Given the compound `COc1ccc(C(=O)N[C@@H](CC(=O)O)c2ccccc2C)nc1-c1cc(C)cnc1Cl` , what is its reported pIC50?
Result: 5.25

Q: Record request: pIC50 value, item `Cc1cc(F)ccc1-c1cncc(C(=O)N[C@@H](CC(=O)O)c2ccccc2C)c1`
Result: 5.51
